B1: POU domain, class 2, transcription factor 2, residues 200 to 269; numbered along this chain, P09086 (parent)
chain: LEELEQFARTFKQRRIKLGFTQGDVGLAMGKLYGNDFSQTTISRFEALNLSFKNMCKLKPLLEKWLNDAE

Variants of: B1
Experiment: abundance fitness (aPCA) (normalised: wild type 0, dead -1); higher = more abundant; growth selection in yeast, the domain comes from the species named
Settings: Homo sapiens
Hi there, I'd appreciate the recorded abundance fitness for every entry that follows.

K59L; -0.069
K59W; -0.078
G19L; -0.321
I16C; -0.149
K17H; -0.2
N49S; -0.005

Look up abundance fitness for the entries below, preserving their order.
1. A47D
2. I42H
3. G30A
4. T40E
5. T21W

Out:
[0.158, -1.01, -0.041, -0.002, -0.633]

Look up abundance fitness for the entries below, preserving their order.
1. L58C
2. Q22A

Out:
1. -0.067
2. 0.004

In: # get_value(readout='abundance fitness', item= `A28K` )
Out: -0.021
